Recorded values, source the supplement of paper PMC10126150.

Measured switch fluorescence ratio, listed per entry.
System: ATP;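 further: ATP exposure 15 min at 22 °C before imaging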
Assay: switch fluorescence ratio, 500 uM ATP over buffer (Cy3 cluster intensity, sum of 5 cycles each) (fold (ratio)); higher = stronger signal-on switching upon ATP binding; sequences stand for … in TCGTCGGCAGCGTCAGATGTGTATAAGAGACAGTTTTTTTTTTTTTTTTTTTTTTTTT…TC
Conditions: aptamer strand: ATP DNA aptamer (quencher-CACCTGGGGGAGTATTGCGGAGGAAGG + anchor), 100 nM annealed; ATP concentration: 500 uM
Value type: switch fluorescence ratio

[
  {
    "Seq text": "TATGTGGAGG",
    "Data value": 0.973
  },
  {
    "Seq text": "AAATGCTACG",
    "Data value": 1.01
  },
  {
    "Seq text": "CTTGTCTTAA",
    "Data value": 1.02
  },
  {
    "Seq text": "AGTAAGGGGG",
    "Data value": 0.998
  },
  {
    "Seq text": "GGGGGCAGTT",
    "Data value": 1
  },
  {
    "Seq text": "TTTTTACGGA",
    "Data value": 1.02
  },
  {
    "Seq text": "TACTCGCCAT",
    "Data value": 1.13
  },
  {
    "Seq text": "TTCCTGTCGT",
    "Data value": 1
  },
  {
    "Seq text": "CCGTGAATAT",
    "Data value": 2.21
  },
  {
    "Seq text": "GTTTTATCCT",
    "Data value": 1.05
  },
  {
    "Seq text": "GATTTGCGGG",
    "Data value": 0.983
  },
  {
    "Seq text": "ATGGGTGGG",
    "Data value": 0.965
  },
  {
    "Seq text": "CTCAGGGGGG",
    "Data value": 1.02
  },
  {
    "Seq text": "CCTCATTTTT",
    "Data value": 0.988
  },
  {
    "Seq text": "CGGTAAGTGG",
    "Data value": 0.988
  },
  {
    "Seq text": "AAGTCGTTCG",
    "Data value": 0.989
  },
  {
    "Seq text": "GAAGGGCAAG",
    "Data value": 1.02
  },
  {
    "Seq text": "GGGAGGGGCA",
    "Data value": 0.971
  },
  {
    "Seq text": "CCAGTACCTT",
    "Data value": 1.09
  },
  {
    "Seq text": "TTATTGTTGA",
    "Data value": 1.02
  },
  {
    "Seq text": "AAAGTGTCGT",
    "Data value": 0.973
  },
  {
    "Seq text": "GAATTTTCGC",
    "Data value": 0.995
  },
  {
    "Seq text": "TAGAGGGTTT",
    "Data value": 1.02
  },
  {
    "Seq text": "TTTCGAACGG",
    "Data value": 1.03
  },
  {
    "Seq text": "GGGTGTAGTA",
    "Data value": 0.998
  },
  {
    "Seq text": "GATTGGTTGT",
    "Data value": 1.01
  },
  {
    "Seq text": "CAAGGTCCGA",
    "Data value": 0.994
  },
  {
    "Seq text": "CCTGGGGCCA",
    "Data value": 1.03
  },
  {
    "Seq text": "TTGTTTTTAT",
    "Data value": 0.992
  },
  {
    "Seq text": "TGCCACTCTG",
    "Data value": 1.03
  }
]
